For each entry below, report its inhibition at 0.01 µM value.
# target.of.assay: human 17β-HSD2 (Homo sapiens)
# Construct: 17β-HSD2 was obtained from the microsomal fraction; from tissue; host or cells: human placenta, microsomal fraction
# Sequence (P37059 whole entry): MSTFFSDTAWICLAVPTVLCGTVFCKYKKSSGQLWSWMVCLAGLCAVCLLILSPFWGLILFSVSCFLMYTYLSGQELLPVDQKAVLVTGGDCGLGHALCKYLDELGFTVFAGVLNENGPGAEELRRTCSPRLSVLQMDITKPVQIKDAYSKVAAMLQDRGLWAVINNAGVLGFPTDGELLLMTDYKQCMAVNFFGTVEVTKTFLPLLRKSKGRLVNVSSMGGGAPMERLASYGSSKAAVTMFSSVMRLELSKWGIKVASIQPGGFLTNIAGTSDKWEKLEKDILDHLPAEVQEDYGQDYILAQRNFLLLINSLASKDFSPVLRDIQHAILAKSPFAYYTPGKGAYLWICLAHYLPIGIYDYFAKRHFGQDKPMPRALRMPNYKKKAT
# experiment.description: Inhibition of human 17β-HSD2 (conversion of [3H]-E2 to E1)
# Type: biochemical
# condition.context: read-out: % inhibition h17β-HSD2 @ 10 nM
Respond with the bare value in %.

### Prompt Fill blank: measured inhibition at 0.01 µM of the molecule COc1c(Cl)cc(-c2ccc(C(=O)c3c(F)ccc(O)c3Cl)s2)cc1Cl [Compound 78] is ____.
### Response 54

### Prompt Find the recorded inhibition at 0.01 µM belonging to O=C(c1ccc(-c2ccc(O)cc2)s1)c1cc(F)c(F)c(O)c1F [Compound 68] and report it.
### Response 96

### Prompt Would you kindly share the measured inhibition at 0.01 µM for NS(=O)(=O)Oc1ccc(-c2ccc(C(=O)c3cc(F)c(F)c(O)c3F)s2)cc1 [Compound 74] ?
### Response 72

Where do these numbers come from? They come from patent US9884839B2.
